Source listed as paper PMC11792500.

Recorded measurements of IC50, one per entry
# Tested on: A549 (lung cancer)
# ASSAY TEXT: MTT cytotoxicity assay, A549 lung cancer cells
# Format: cell-based, human
# COND: Homo sapiens, A549, 48 h, read-out: IC50 against A549
Please answer using the number first and the unit second.

CS(=O)(=O)c1ccc2nc(NC(=O)Cn3cc(COc4ccc(/C=N/NC(=O)c5ccccc5)cc4)nn3)sc2c1 [8c]: 25 µM
CS(=O)(=O)c1ccc2nc(NC(=O)Cn3cc(COc4ccc(/C=N\Nc5ccc([N+](=O)[O-])cc5[N+](=O)[O-])cc4)nn3)sc2c1 [8i]: 89 µM

**Query** Given the molecule O=C(Cn1cc(COc2ccc(/C=N\Nc3ccc([N+](=O)[O-])cc3[N+](=O)[O-])cc2)nn1)Nc1nc2ccccc2s1 [8g] , what is its reported IC50?
**Result** 103 µM

**Query** Given the molecule Cc1ccc2nc(NC(=O)Cn3cc(COc4ccc(/C=N\NC(N)=S)cc4)nn3)sc2c1 [8k] , what is its reported IC50?
**Result** 138 µM

**Query** Given the molecule NC(=S)N/N=C\c1ccc(OCc2cn(CC(=O)Nc3nc4ccccc4s3)nn2)cc1 [8j] , what is its reported IC50?
**Result** 63 µM

**Query** Given the molecule C#CCOc1ccc(/C=N\NC(N)=S)cc1 [7d] , what is its reported IC50?
**Result** 128 µM

**Query** Given the molecule Cc1ccc2nc(NC(=O)Cn3cc(COc4ccc(/C=N/NC(=O)c5ccncc5)cc4)nn3)sc2c1 [8e] , what is its reported IC50?
**Result** 92 µM

**Query** Given the molecule C#CCOc1ccc(/C=N\NC(=O)c2ccccc2)cc1 [7a] , what is its reported IC50?
**Result** 200 µM

---

# Test system: HCT-116 (colon cancer)
# ASSAY TEXT: MTT cytotoxicity assay, HCT-116 colon cancer cells
# Assay type: cell-based, human
# COND: read-out: IC50 against HCT-116; MTT, 48 h treatment, ±SD, n = 9
MEASUREMENT TYPE: pIC50
Expect pIC50 as a plain number equal to -log10 of the molar concentration.

**Query** Given the molecule O=c1[nH]cc(F)c(=O)[nH]1 [5-FU, reference compound] , what is its reported pIC50?
**Result** 4.96

---

# Test system: A549 (lung cancer)
# ASSAY TEXT: MTT cytotoxicity assay, A549 lung cancer cells
# Type: cell-based, human
# COND: Homo sapiens, A549, 48 h, read-out: IC50 against A549
Recorded measurements of IC50, one per entry
Reply numerically in µM, unit not repeated.

Solved entries:
O=C(Cn1cc(COc2ccc(/C=N/NC(=O)c3ccncc3)cc2)nn1)Nc1nc2ccccc2s1 [8d]: 38
CS(=O)(=O)c1ccc2nc(NC(=O)Cn3cc(COc4ccc(/C=N/NC(=O)c5ccncc5)cc4)nn3)sc2c1 [8f]: 38
C#CCOc1ccc(/C=N\Nc2ccc([N+](=O)[O-])cc2[N+](=O)[O-])cc1 [7c]: 156
CS(=O)(=O)c1ccc2nc(NC(=O)Cn3cc(COc4ccc(/C=N\NC(N)=S)cc4)nn3)sc2c1 [8l]: 142

**Query** Given the molecule O=C(Cn1cc(COc2ccc(/C=N/NC(=O)c3ccccc3)cc2)nn1)Nc1nc2ccccc2s1 [8a] , what is its reported IC50?
**Result** 18

**Query** Given the molecule Cc1ccc2nc(NC(=O)Cn3cc(COc4ccc(/C=N/NC(=O)c5ccccc5)cc4)nn3)sc2c1 [8b] , what is its reported IC50?
**Result** 21

---

# Test system: A549 (lung cancer)
# ASSAY TEXT: MTT cytotoxicity assay, A549 lung cancer cells
# Format: cell-based, human
# COND: from cytotoxicity IC50 at A549, DataWarrior
MEASUREMENT TYPE: lipophilic efficiency (LLE)
Output: the number by itself.

Solved entries:
CS(=O)(=O)c1ccc2nc(NC(=O)Cn3cc(COc4ccc(/C=N/NC(=O)c5ccccc5)cc4)nn3)sc2c1: 1.84
NC(=S)N/N=C\c1ccc(OCc2cn(CC(=O)Nc3nc4ccccc4s3)nn2)cc1: 1.82

**Query** Given the compound CS(=O)(=O)c1ccc2nc(NC(=O)Cn3cc(COc4ccc(/C=N\Nc5ccc([N+](=O)[O-])cc5[N+](=O)[O-])cc4)nn3)sc2c1 , what is its reported lipophilic efficiency (LLE)?
**Result** 1.50

**Query** Given the compound CS(=O)(=O)c1ccc2nc(NC(=O)Cn3cc(COc4ccc(/C=N/NC(=O)c5ccncc5)cc4)nn3)sc2c1 , what is its reported lipophilic efficiency (LLE)?
**Result** 2.66

---

# Test system: T47-D (breast cancer)
# ASSAY TEXT: MTT cytotoxicity assay, T47-D breast cancer cells
# Format: cell-based, human
# COND: from cytotoxicity IC50 at T47-D (printed H47-D), DataWarrior
MEASUREMENT TYPE: lipophilic efficiency (LLE)

NC(=S)N/N=C\c1ccc(OCc2cn(CC(=O)Nc3nc4ccccc4s3)nn2)cc1: 1.81

**Query** Given the molecule CS(=O)(=O)c1ccc2nc(NC(=O)Cn3cc(COc4ccc(/C=N/NC(=O)c5ccccc5)cc4)nn3)sc2c1 , what is its reported lipophilic efficiency (LLE)?
**Result** 1.93

**Query** Given the molecule CS(=O)(=O)c1ccc2nc(NC(=O)Cn3cc(COc4ccc(/C=N/NC(=O)c5ccncc5)cc4)nn3)sc2c1 , what is its reported lipophilic efficiency (LLE)?
**Result** 2.58

**Query** Given the molecule CS(=O)(=O)c1ccc2nc(NC(=O)Cn3cc(COc4ccc(/C=N\Nc5ccc([N+](=O)[O-])cc5[N+](=O)[O-])cc4)nn3)sc2c1 , what is its reported lipophilic efficiency (LLE)?
**Result** 1.52
